- target desc: Kdr (Homo sapiens)
- Construct: Kinases are expressed as either kinase domains or full length constructs; made in house
- Sequence (P35968 20-1356, species assumed): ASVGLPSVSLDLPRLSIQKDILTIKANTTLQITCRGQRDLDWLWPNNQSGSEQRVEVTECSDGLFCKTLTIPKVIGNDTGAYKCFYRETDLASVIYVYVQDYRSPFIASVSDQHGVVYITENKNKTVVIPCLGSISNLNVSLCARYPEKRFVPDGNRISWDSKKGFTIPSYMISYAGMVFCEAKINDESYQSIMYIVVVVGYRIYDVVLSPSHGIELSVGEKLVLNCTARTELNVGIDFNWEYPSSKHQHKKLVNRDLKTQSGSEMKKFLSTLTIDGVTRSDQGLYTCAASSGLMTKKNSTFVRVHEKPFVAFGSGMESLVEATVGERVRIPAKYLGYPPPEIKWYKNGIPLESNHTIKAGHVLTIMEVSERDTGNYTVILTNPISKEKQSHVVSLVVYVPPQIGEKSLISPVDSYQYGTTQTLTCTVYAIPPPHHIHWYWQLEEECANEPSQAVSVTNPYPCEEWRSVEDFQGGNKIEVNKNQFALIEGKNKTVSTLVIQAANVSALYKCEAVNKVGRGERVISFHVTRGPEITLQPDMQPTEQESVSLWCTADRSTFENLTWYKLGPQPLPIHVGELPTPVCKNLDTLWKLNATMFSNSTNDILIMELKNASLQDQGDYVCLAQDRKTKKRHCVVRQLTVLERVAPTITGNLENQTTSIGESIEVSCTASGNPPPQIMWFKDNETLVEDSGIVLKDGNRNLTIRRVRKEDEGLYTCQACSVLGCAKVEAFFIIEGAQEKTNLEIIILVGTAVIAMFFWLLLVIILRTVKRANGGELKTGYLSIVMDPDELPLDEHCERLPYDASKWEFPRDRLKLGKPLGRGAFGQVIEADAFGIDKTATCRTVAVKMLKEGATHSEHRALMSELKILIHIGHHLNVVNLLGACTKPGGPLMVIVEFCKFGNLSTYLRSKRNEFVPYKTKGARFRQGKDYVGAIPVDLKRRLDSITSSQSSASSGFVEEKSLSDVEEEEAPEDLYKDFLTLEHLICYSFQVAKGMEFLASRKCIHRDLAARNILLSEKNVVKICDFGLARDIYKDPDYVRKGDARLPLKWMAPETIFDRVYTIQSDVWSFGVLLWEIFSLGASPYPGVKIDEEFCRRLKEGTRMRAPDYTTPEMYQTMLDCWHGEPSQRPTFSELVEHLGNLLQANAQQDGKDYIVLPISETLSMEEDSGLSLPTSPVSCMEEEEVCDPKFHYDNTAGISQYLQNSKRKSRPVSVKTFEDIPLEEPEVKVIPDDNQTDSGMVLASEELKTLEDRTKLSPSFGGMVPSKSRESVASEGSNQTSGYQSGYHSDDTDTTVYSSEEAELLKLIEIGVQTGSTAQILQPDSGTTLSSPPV
- protocol summary: Kinase inhibition assay (33P transfer), Kdr
- Format: biochemical
- assay conditions: read-out: KDR-1
pIC50: −log10 of the molar value.
metric: pIC50

COc1cc(Nc2ncnc(Nc3ccc(NS(=O)(=O)c4ccc([N+](=O)[O-])cc4)cc3)n2)cc(OC)c1OC
> 6.14

Measured pIC50 (Kdr (Homo sapiens)), entry CN(c1ccc(F)c(Cl)c1)c1ncnc(Nc2cccc(Br)c2)n1 : 5.23 to 6.01

Test item COC(=O)Cc1cccc(Nc2ncnc(Nc3ccc(C)c(O)c3)n2)c1 ; Kdr (Homo sapiens); reported pIC50 was > 5.96

For COc1cccc(Nc2ncnc(-n3c(N)nc4ccccc43)n2)c1 on Kdr (Homo sapiens), measured pIC50 was > 5.92

I looked up CN(c1cccc(Cl)c1)c1ncnc(Nc2cc(-c3ccco3)[nH]n2)n1 and its pIC50 for Kdr (Homo sapiens) was 5.19 to 5.96

For the molecule COc1cc(Nc2ncnc(-c3ccc(NCCCO)nc3)n2)cc(OC)c1OC , the measured pIC50 on Kdr (Homo sapiens) was > 6.01

Sample COc1cc(Nc2ncnc(-n3c(NCc4cccc(C)c4)nc4ccccc43)n2)cc(OC)c1OC , system: Kdr (Homo sapiens). Its pIC50 is > 6.09

Form: item COC(=O)c1sccc1Nc1ncnc(N2CCCc3cc(C)ccc32)n1 ; test system Kdr (Homo sapiens); pIC50: < 4.93

Record COc1ccc(Nc2ncnc(NCc3c(C)cccc3Cl)n2)cc1OC ; system Kdr (Homo sapiens); pIC50 = < 4.93

Summary: COCCCNc1ncnc(N2CCCc3cc(C)ccc32)n1 , Kdr (Homo sapiens), pIC50 = < 4.84

Bench note, Kdr (Homo sapiens): CN(c1ccccc1)c1ncnc(-n2c(N)nc3ccccc32)n1 , pIC50 reads 5.12 to 5.90

---

In this section we review reported IC50 values for a set of molecules.
- target desc: EGFR (Homo sapiens, UniProt P00533)
- Construct: Kinases are expressed as either kinase domains or full length constructs; made in house
- Sequence (P00533 25-1210, species assumed): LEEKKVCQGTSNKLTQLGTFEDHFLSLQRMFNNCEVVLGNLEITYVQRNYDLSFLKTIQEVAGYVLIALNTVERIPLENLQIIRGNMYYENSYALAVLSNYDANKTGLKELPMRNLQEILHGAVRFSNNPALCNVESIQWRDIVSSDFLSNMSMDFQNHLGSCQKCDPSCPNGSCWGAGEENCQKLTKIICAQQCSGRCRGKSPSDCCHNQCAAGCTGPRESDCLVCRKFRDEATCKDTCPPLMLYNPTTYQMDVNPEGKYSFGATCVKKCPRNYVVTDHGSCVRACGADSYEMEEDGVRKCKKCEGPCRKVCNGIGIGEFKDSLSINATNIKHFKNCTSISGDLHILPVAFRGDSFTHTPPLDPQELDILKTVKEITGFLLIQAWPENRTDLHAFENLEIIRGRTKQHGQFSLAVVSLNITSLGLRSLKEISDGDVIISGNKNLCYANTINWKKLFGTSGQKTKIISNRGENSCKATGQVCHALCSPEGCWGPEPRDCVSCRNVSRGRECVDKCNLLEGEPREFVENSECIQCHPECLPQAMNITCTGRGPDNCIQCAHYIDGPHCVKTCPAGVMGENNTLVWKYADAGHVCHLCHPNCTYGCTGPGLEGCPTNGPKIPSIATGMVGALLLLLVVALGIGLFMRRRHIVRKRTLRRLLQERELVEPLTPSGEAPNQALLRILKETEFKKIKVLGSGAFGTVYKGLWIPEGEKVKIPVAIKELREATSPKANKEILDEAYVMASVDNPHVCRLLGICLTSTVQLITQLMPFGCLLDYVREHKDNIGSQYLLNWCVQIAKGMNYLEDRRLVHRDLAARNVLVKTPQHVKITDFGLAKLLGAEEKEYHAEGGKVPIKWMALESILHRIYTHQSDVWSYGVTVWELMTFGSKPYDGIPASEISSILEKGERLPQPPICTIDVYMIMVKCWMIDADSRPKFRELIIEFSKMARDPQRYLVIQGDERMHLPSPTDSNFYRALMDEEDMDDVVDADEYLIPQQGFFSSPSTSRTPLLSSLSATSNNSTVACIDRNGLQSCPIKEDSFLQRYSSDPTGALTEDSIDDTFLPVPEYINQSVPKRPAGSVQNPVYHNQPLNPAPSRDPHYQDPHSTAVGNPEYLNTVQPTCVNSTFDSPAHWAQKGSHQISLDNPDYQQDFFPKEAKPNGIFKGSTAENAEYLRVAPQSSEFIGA
- protocol summary: Kinase inhibition assay (33P transfer), EGFR
- Format: biochemical
- assay conditions: Table 2, class symbols A-E; read-out: EGFR-1

COc1cc(Nc2ncnc(-c3cccnc3NC(C)C)n2)ccc1NC(=O)CCCN1CCNCC1 [Compound 1096]
> 8.9 µM

Input COc1cc(Nc2ncnc(N(C)c3cccc(Cl)c3)n2)cc2ccccc12 [Compound 876] . Output IC50: < 1.02 µM

molecule COC(=O)c1cccc(Nc2ncnc(-n3c(Cl)nc4ccccc43)n2)c1 [Compound 1066] , IC50 observed: 6.3 to 9.19 µM

Measured IC50 of Fc1ccc(CNc2ncccc2-c2ncnc(Nc3cccc(Cn4ccnn4)c3)n2)cc1 [Compound 1102] : 5.29 to 7.72 µM

---

- target desc: EGFR (Homo sapiens, UniProt P00533)
- Construct: Kinases are expressed as either kinase domains or full length constructs; made in house
- protocol summary: Kinase inhibition assay (33P transfer), EGFR
- Assay type: biochemical
- assay conditions: Table 2, class symbols A-E; read-out: EGFR-1
metric: IC50

COc1ccc(Nc2ncnc(N(C)C3CCCCC3)n2)cc1OC
< 1160 nM

CN(c1cccc(Cl)c1)c1ncnc(Nc2ccc3nn(C)cc3c2)n1 has a reported IC50 of < 1090 nM

Measured IC50 of c1ccc(Cn2ncc3cc(Nc4ncnc(Nc5ccc6ncsc6c5)n4)ccc32)cc1 : < 888 nM

Entry c1ccc(Nc2ncccc2-c2ncnc(Nc3ccc4[nH]ncc4c3)n2)cc1 — recorded IC50 = 9200 to 11800 nM

Lab note: COc1cccc(Nc2ncnc(Nc3ccc4c(cnn4Cc4ccccc4)c3)n2)c1 gave IC50 of < 945 nM

Lab note: CN(c1cccc(Cl)c1)c1ncnc(Nc2cccc(Cn3ccnn3)c2)n1 gave IC50 of < 1020 nM

---

- target desc: UniProt P06241
- Sequence (P06241 whole entry, species assumed): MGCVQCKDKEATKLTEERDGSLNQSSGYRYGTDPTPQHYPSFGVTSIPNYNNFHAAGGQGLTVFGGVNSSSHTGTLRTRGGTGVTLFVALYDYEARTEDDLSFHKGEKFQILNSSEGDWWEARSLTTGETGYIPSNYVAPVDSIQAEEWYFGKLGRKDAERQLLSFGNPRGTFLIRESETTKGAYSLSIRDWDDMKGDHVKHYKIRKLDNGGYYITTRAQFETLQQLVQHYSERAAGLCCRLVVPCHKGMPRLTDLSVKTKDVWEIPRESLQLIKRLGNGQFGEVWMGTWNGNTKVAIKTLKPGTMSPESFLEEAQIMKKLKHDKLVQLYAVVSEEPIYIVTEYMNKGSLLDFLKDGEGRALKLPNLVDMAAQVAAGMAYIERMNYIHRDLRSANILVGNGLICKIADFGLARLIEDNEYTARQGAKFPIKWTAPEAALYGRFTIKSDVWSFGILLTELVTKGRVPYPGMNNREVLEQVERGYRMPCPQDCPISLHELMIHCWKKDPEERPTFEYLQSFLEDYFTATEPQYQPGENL
metric: IC50

Examples with answers:
COc1cc(Nc2ncnc(N3c4ccc(F)cc4CCC3C)n2)cc(OC)c1OC (stereo not drawn)
0.94 to 5.64 µM
COc1cc(Nc2ncnc(Nc3ccc(O)cc3Cl)n2)cc(OC)c1OC
0.991 to 5.94 µM
COc1cc(Nc2ncnc(-n3c(NCc4ccncc4)nc4ccccc43)n2)cc(OC)c1OC
0.826 to 4.95 µM
COC(=O)c1cccc(Nc2ncnc(Nc3cc(-c4ccco4)n[nH]3)n2)c1
> 11.9 µM
COc1cc(Nc2ncnc(Nc3ccc4ccccc4c3)n2)cc(OC)c1OC
8.68 to 11.2 µM

Record COc1cc(Nc2ncnc(-n3c(N)nc4ccccc43)n2)cc(OC)c1OC / UniProt P06241, IC50 recorded as 1.02 to 6.1 µM

---

Quick list: pIC50 per entry.
- target desc: AKT (Homo sapiens)
- Construct: Kinases are expressed as either kinase domains or full length constructs; made in house
- Sequence (Q9Y243 whole entry, the tested form may be a part): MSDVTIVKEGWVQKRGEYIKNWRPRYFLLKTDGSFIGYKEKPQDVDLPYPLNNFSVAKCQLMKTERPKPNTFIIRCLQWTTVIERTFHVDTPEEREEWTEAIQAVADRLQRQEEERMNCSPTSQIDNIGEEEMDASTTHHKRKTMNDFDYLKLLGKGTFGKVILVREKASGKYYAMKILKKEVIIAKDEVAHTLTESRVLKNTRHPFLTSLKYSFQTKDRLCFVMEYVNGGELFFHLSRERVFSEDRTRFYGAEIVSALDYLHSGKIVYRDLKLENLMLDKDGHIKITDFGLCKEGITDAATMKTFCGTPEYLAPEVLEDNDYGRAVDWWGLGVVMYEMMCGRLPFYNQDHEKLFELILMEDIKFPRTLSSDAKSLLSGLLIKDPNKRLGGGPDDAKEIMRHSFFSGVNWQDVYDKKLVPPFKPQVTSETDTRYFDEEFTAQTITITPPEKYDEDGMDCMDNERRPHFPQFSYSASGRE
- protocol summary: Kinase inhibition assay (33P transfer), AKT
- Format: biochemical
- assay conditions: Table 2, kinase inhibition class; read-out: AKT3-1
pIC50: −log10 of the molar value.

Recorded pIC50, per entry:
CN(c1ccccc1)c1ncnc(-n2c(N)nc3ccccc32)n1
< 4.85
Nc1nc2ccccc2n1-c1ncnc(Nc2ccccn2)n1
< 4.83
COc1ccc(Nc2ncnc(Nc3ccc(OCc4ccccc4)cc3)n2)cc1OC
4.98 to 5.09

pIC50 recorded for this compound, COc1cc(Nc2ncnc(Nc3nc(-c4ccccc4)cs3)n2)cc(OC)c1OC , is < 4.99

Query COc1cc(Nc2ncnc(-n3c(OCc4ccccn4)nc4ccccc43)n2)cc(OC)c1OC yields pIC50 of < 5.03

Lab book: pIC50 of COc1cc(Nc2ncnc(Nc3ccccn3)n2)cc(OC)c1OC noted as < 4.90

---

Reported values of pIC50 for individual entries
- target desc: PDGFRB (Homo sapiens)
- Construct: Kinases are expressed as either kinase domains or full length constructs; made in house
- Sequence (P09619 33-1106, species assumed): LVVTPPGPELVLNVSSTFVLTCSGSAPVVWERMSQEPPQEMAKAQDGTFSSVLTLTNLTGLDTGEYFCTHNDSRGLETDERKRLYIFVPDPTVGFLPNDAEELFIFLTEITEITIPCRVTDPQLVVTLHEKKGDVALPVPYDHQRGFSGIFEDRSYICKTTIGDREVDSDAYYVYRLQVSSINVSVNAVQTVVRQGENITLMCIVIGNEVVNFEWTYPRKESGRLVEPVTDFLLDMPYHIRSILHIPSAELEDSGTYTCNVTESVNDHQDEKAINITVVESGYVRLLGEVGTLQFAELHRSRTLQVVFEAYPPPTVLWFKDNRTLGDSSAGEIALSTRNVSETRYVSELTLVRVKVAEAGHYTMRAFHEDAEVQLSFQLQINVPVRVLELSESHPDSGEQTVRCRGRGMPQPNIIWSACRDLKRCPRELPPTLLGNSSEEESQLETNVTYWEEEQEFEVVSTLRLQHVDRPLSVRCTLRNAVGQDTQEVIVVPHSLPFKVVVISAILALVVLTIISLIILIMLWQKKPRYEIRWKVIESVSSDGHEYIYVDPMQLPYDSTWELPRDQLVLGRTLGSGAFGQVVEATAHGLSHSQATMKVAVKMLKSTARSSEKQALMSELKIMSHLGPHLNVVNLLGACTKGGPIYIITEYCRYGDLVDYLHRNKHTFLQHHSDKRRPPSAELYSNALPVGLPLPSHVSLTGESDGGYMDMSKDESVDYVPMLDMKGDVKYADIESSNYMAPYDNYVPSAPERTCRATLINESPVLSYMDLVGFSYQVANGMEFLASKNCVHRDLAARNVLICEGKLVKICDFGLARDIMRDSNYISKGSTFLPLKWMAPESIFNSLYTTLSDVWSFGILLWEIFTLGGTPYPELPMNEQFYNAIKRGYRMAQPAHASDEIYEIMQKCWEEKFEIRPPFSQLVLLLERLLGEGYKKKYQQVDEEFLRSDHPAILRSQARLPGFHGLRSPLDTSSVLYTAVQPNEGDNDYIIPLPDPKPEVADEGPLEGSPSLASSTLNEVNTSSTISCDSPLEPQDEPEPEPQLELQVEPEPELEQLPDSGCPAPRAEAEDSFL
- protocol summary: Kinase inhibition assay (33P transfer), PDGFRB
- Type: biochemical
- assay conditions: read-out: PDGFRB-1
pIC50: −log10 of the molar value.

COC(=O)c1cccc(Nc2ncnc(Nc3cc(-c4ccco4)n[nH]3)n2)c1
5.03 to 5.20

Notebook: NC(=O)c1ccc(Nc2ncnc(Nc3cc(-c4ccco4)n[nH]3)n2)cc1 , pIC50 read as > 5.96

response.value for COc1ccc(Nc2ncccc2-c2ncnc(Nc3cc(OC)c(OC)c(OC)c3)n2)c(C)c1 (field: pIC50) = < 5.02

Measured pIC50 of COc1cc(Nc2ncnc(-n3c(Cl)nc4ccccc43)n2)cc(OC)c1OC : 5.24 to 6.01

Reported pIC50 for COc1cc(Nc2ncnc(Nc3cc(-c4ccco4)n[nH]3)n2)cc(OC)c1OC was > 6.01

Per the record, COc1cc(Nc2ncnc(-n3c(Nc4ccc5[nH]ncc5c4)nc4ccccc43)n2)cc(OC)c1OC has pIC50 of > 6.11

---

- target desc: EGFR (Homo sapiens)
- Construct: Kinases are expressed as either kinase domains or full length constructs; made in house
- protocol summary: Kinase inhibition assay (33P transfer), EGFR
- Type: biochemical
- assay conditions: Table 2, kinase inhibition class; read-out: EGFR-1
- Protocol: The inhibitor compounds described herein are screened in the following manner. […] Kinases are expressed as either kinase domains or full length constructs fused to glutathione S-transferase (GST) or polyHistidine tagged fusion proteins in either E. colior Baculovirus-High Five expression systems. […] Kinase activity and inhibition are measured essentially by established protocols (Braunwalder et al., 1996). […]
metric: IC50

Entry COc1cc(Nc2ncnc(Oc3ccc(OCc4ccccc4)cc3)n2)cc(OC)c1OC [Compound 530] , IC50 reported as > 9.77 µM

---

- target desc: PDGFRB (Homo sapiens)
- Construct: Kinases are expressed as either kinase domains or full length constructs; made in house
- protocol summary: Kinase inhibition assay (33P transfer), PDGFRB
- Assay type: biochemical
- assay conditions: read-out: PDGFRB-1
metric: IC50

Looking up COc1cc(Nc2ncnc(-n3c(NCc4ccc(C(F)(F)F)cc4)nc4ccccc43)n2)cc(OC)c1OC , I found its IC50 recorded as > 8160 nM

The reported value for C=CCNc1cc(-c2ncnc(Nc3cc(OC)c(OC)c(OC)c3)n2)ccn1 in terms of IC50 is 6080 to 8870 nM

Item: COc1cc(Nc2ncnc(-n3ccc4cc(O)ccc43)n2)cc(OC)c1OC | IC50: < 1020 nM

# IC50 (compound: COc1cc(Nc2ncnc(-n3c(NCc4nc5ccccc5[nH]4)nc4ccccc43)n2)cc(OC)c1OC ) is > 8600 nM

The recorded IC50 for entry COc1cc(Nc2ncnc(-n3c(Nc4ccc(C)cc4)nc4ccccc43)n2)cc(OC)c1OC equals < 827 nM

Per the records, this compound ( COCCOc1ccc(Nc2ncnc(-n3c(N)nc4ccccc43)n2)cc1OCCOC ) has IC50 equal to > 9970 nM

Consider COc1cc(Nc2ncnc(N3c4ccccc4CC3C)n2)cc(OC)c1OC (centres unmarked) . Its measured IC50 is < 1020 nM

response.value for COc1ccc(Nc2ncnc(Nc3cc(OC)c(OC)c(OC)c3)n2)cc1OCCN1CCOCC1 (field: IC50) = 780 to 4680 nM

Notebook: COc1cc(Nc2ncnc(Nc3cccc(Cl)c3)n2)cc(OC)c1OC , IC50 read as < 1030 nM

// field: IC50; key: COc1cc(Nc2ncnc(-n3c(N)nc4ccccc43)n2)cc(OCCN2CCOCC2)c1OC ; value = < 812 nM

Input COc1cc(Nc2ncnc(Nc3ccc4c(c3)OCO4)n2)cc(OC)c1OC . Output IC50: 1010 to 6040 nM
